Experiment summary: E. coli DRC41 culture turbidity changes, primary screen, E. coli filamentation inducer project, strain DRC41, OD650, 48 h (AID 1152);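 also: E. coli MC1000 strain DRC41 lacking acrAB efflux pump and sulA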
Test conditions: E. coli DRC41 (acrAB sulA), higher = more signal, called active from +8 up or from −8 down
Quantity kind: z-score
Enter the number alone.

# get_value(readout='z-score', item= COC(=O)CC=C[C@H](C)[C@@H](OCc1ccccc1Br)C(C)C )
0.358

GET /values?readout=z-score&item= C[C@H](c1ccccc1)N1C(=O)[C@H]2[C@@H]3C(=CC[C@H]2C1=O)C(=O)[C@H]1O[C@H]1[C@H]3O
0.0931

Which measured z-score value corresponds to CC(C)c1ccc(NN2C(C(O)c3ccc4c(c3)OCO4)C=CC3C(=O)N(c4ccccc4)C(=O)C32)cc1 (stereo not drawn) ?
-0.481

Quick one: z-score of CCN1C(=O)[C@H]2[C@H]3[C@H](O)[C@H](O)CC(=NO[C@@H]4O[C@H](CO)[C@@H](O)[C@H](O)[C@H]4O)[C@@H]3CC[C@H]2C1=O ?
0.0871

Consider the molecule Cc1cc2c(c(=O)o1)[C@H](O)[C@H]1O[C@H]1C2=O and give its measured z-score.
-0.743

Suppose we examine the molecule CS(=O)(=O)CCOC(=O)C1=CC(CCCO)=CC(c2cccs2)N(Cc2cccc(OC(F)(F)F)c2)C=C1C(=O)OCCS(C)(=O)=O (stereo not drawn) ; what z-score value has been reported?
-0.697

Would you kindly share the measured z-score for COC(=O)[C@H]1COC(c2ccc(OCCCO)cc2)=N1 ?
-0.13

Fill blank: measured z-score of the molecule CCN1C(=O)[C@H]2[C@H]3[C@H](O)[C@H](O)CC(=NOCc4ccccc4)[C@H]3CC[C@H]2C1=O is ____.
-0.255

---

Tested on: Chordin-like protein 2 (CHRDL2)
Experiment summary: CHRDL2 small-molecule binders, primary screen, biochemical, small-molecule microarray, 635 nm fluorescence (AID 1126);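 also: printed compound slides probed with Chrdl2 protein at 4 µg/mL for 1 h at 4 C; score merges 667 nm emission intensity with signal to noise over three replicate slides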
Test conditions: small-molecule microarray binding, fluorescence 635 nm; higher = more signal
Answer each item with its documented composite z-score.
Reply briefly: the number, and no unit.

Requested field: composite z-score. Item: COC(=O)CC=C[C@@H](C)[C@@H](C=NO[C@@H](C)c1cc(-c2c(C)cc(C)cc2C)no1)OC
-1.36

Name the recorded composite z-score for Cc1cc2c(nc1C)CCCN2CC(O)CN1CCN(C)CC1 (stereo not given) .
0.731

// lookup composite z-score for CCOC(=O)CCN1C(=O)[C@H]2[C@H]3[C@H](O)[C@H](O)CC(=NOC[C@@H](O)COCc4ccco4)[C@@H]3CC[C@H]2C1=O
0.457

Could you tell me which composite z-score is on file for CN(C)c1ccc(C(O)C2C=CC3C(=O)N(c4ccccc4)C(=O)C3N2Nc2ccccc2F)cc1 (stereo not given) ?
-0.371

I'd like to know its composite z-score. The compound in question is [N-]=[N+]=NCc1ccccc1[C@@H]1OC(c2ccc(OCCCO)cc2)=N[C@]1(Cc1ccccc1)C(=O)N1CCOCC1
0.766

Which composite z-score value belongs to O=C(NN=C1C[C@@H](O)[C@@H](O)[C@@H]2[C@@H]3C(=O)N(c4cccc(Oc5ccccc5)c4)C(=O)[C@@H]3CC[C@H]12)OCc1ccccc1 ?
0.0071

Name the recorded composite z-score for C#CCCCON=C1C[C@@H](O)[C@@H](O)[C@@H]2[C@@H]3C(=O)N(CCC(=O)OCC)C(=O)[C@@H]3CC[C@@H]12 .
0.715

Reported composite z-score, compound CCCNC(=O)[C@@H]1c2ccccc2C(=O)N(Cc2ccccc2Cl)[C@H]1c1ccc(CO)cc1 : ____
0.36

Find the recorded composite z-score belonging to C[C@@H]1C=CCC(=O)OC[C@H](C)C(=O)OC[C@H]2O[C@H]1C=C[C@H]2O and report it.
0.458

Query: composite z-score; subject: CCN1C(=O)[C@H]2[C@H]3[C@H](O)[C@H](O)CC(=NO[C@@H]4O[C@H](CO)[C@@H](O)[C@H](O)[C@H]4O)[C@@H]3CC[C@H]2C1=O
-0.229

Which composite z-score value is on record for COC(=O)CC1OC1[C@H](C)[C@@H](OC)C(C)C (stereo not given in full) ?
1.03

Recorded composite z-score of CC(CCC(=O)OC[C@H]1O[C@H](C#Cc2ccccc2)C=C[C@@H]1Oc1ccc(C)cc1)=NO[C@@H](C)c1cn([C@H](CO)Cc2ccccc2)nn1 , please.
0.145

# query: composite z-score of entry CCOC(=O)C[C@H]1[C@H](OC(=O)c2ccc(C(=O)c3ccccc3)cc2)[C@@H](NC(=O)c2ccc(-c3ccccc3)cc2)c2cc(OCCCO)ccc2N1C(=O)c1ccc2ccccc2n1
0.611

Dear colleague, I am looking for the recorded composite z-score of the following compound: CCOC(=O)NN=C1C[C@@H](O)[C@@H](O)[C@@H]2[C@@H]3C(=O)N(C(C)(C)C)C(=O)[C@@H]3CC[C@@H]12
-0.63

Which composite z-score is listed for CCCC=C(CCC)[C@@H](NC(=O)c1ccc(-c2ccccc2)cc1)c1ccc(C(=O)OC)cc1 ?
-0.955
